# System: MARIMO
# test_name: cell viability relative to vehicle control; higher = less cytotoxic;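 also: after 48 h exposure read by CellTiter-Glo luminescence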
# experimental_parameters: 10 µM; SRSF2 genotype: SRSF2 wt/wt
Counter-ions that a name gives are not always drawn.
Readings of cell viability for the listed compounds

compound	experimental_target	cell viability / %
CCCCC(CC)COC(=O)C=Cc1ccc(OC)cc1 (centres undefined) [Octinoxate]	MARIMO	109
O=c1[nH]nc2c3c(cccc13)N=C(CN1Cc3ccccc3C1)N2	MARIMO	108
CNC(=O)c1ccccc1Nc1nc(Nc2ccc(N3CCOCC3)cc2OC)ncc1Cl	MARIMO	39.6
CC(C)(O)C1CCC(C)(C2C(O)CC3(C)C4CC(O)C5C(C)(C)C(O)CCC56CC46CCC23C)O1 (centres undefined) [Cyclogalegenol]	MARIMO	104
Clc1cccc(Cl)c1NC1=NCCN1 [Clonidine hydrochloride (Catapres)]	MARIMO	113
COc1ccc(-c2cnc3c(-c4cccc5ncccc45)cnn3c2)cc1	MARIMO	112
O=C(O)C(=O)O.[NH-]C1CCCCC1[NH-].[Pt+2] (centres undefined) [Oxaliplatin (Eloxatin)]	MARIMO	62
CC(C)CC(=O)Nc1n[nH]c2c1CN(C(=O)C1CCN(C)CC1)C2(C)C	MARIMO	6.67
CN1CCN(C2CCN(C(=O)Nc3cc(Oc4ccc(NC(=O)C5(C(=O)Nc6ccc(F)cc6)CC5)c(F)c4)ccn3)CC2)CC1 [Golvatinib (E7050)]	MARIMO	58.9
COC1C(O)C(O)C(O)C(O)C1O (centres undefined) [Sequoyitol]	MARIMO	99.1
Cc1nc2cc(F)c(F)cc2n1-c1cncc(Nc2ccc(C(F)(F)F)cc2)n1	MARIMO	6.32
CCC(CC)n1ccc2c(C(=O)NCc3c(C)cc(C)[nH]c3=O)cc(C#N)cc21	MARIMO	112
CCOC(=O)[C@H](CCc1ccccc1)N[C@H]1CCc2ccccc2N(CC(=O)O)C1=O [Benazepril hydrochloride]	MARIMO	111
CN(C)CCc1c[nH]c2ccc(Cn3cncn3)cc12 [Rizatriptan Benzoate (Maxalt)]	MARIMO	82.7
Cn1cc(/C=C2\C(=O)Nc3cccnc32)c2ccccc21	MARIMO	94.3
COc1ncnc(NS(=O)(=O)c2ccc(N)cc2)c1OC [Sulfadoxine (Sulphadoxine)]	MARIMO	105
C[C@H](CC(=O)C[C@@H](C)[C@H]1C[C@H](O)[C@@]2(C)C3=C(C(=O)C[C@]12C)[C@@]1(C)CCC(=O)C(C)(C)[C@@H]1C[C@@H]3O)C(=O)O [Ganoderic acid A]	MARIMO	104
C[C@@]12C[C@@]3(O)O[C@@H](O1)[C@]1(COC(=O)c4ccccc4)[C@@H]3C[C@]12O[C@@H]1O[C@H](COC(=O)c2ccccc2)[C@@H](O)[C@H](O)[C@H]1O [Benzoylpaeoniflorin]	MARIMO	96.7
OCC(O)C(O)C(O)C(O)CO (centres undefined) [Dulcitol]	MARIMO	107
O=c1cc(N2CCOCC2)oc2c1ccc1ccccc12	MARIMO	102
CCCOC(=O)c1cc(O)c(O)c(O)c1 [Propyl gallate]	MARIMO	99.1
COC(=O)C1=COC(OC2OC(CO)C(O)C(O)C2O)C2C(CO)=CC(O)C12 (centres undefined)	MARIMO	93.2
CCCCC(C)(O)C/C=C/[C@H]1[C@H](O)CC(=O)[C@@H]1CCCCCCC(=O)OC (mixture of isomers) [Misoprostol]	MARIMO	79
CO[C@H]1[C@H](O)[C@@H](O)[C@@H](O)[C@H](O)[C@@H]1O [D-Pinitol]	MARIMO	110
CCCCC[C@H](O)/C=C/[C@H]1[C@H](O)CC(=O)[C@@H]1C/C=C\CCCC(=O)O [Dinoprostone]	MARIMO	79.3
Oc1ccc(OCc2ccccc2)cc1 [Monobenzone (Benoquin)]	MARIMO	73
CCCCCCCCCCCCCc1cccc(O)c1C(=O)O [Ginkgolic Acid (C130)]	MARIMO	107
Cc1cc(=O)[nH]c(=S)[nH]1 [Methylthiouracil]	MARIMO	107
Cc1cc(CS(=O)(=O)c2ccccc2)cc(OCc2ccc(CN3CCC[C@@H]3CO)cc2)c1	MARIMO	103

* * *

# Test system: OCI-AML2
# test_name: cell viability relative to vehicle control; higher = less cytotoxic
# experimental_parameters: 10 µM; SRSF2 genotype: P95H/wt
Structures can show the parent of a compound that is named as a salt.

compound	unit_string	cell viability
CCc1ccc(CCOc2ccc(CC3SC(=O)NC3=O)cc2)nc1 (stereo unspecified) [Pioglitazone (Actos)]	%	111
Nc1ccc(C(=O)NCC(=O)O)cc1	%	92.8
NC(=S)c1ccncc1 [Thioisonicotinamide]	%	99.4
CC1CNc2c(cccc2S(=O)(=O)N[C@@H](CCCNC(=N)N)C(=O)N2CC[C@@H](C)C[C@@H]2C(=O)O)C1 (stereo partly specified)	%	91.7
CN1CC2c3ccccc3Oc3ccc(Cl)cc3C2C1 (stereo unspecified) [Asenapine maleate]	%	69.9
CO[C@H]1CC[C@H](N2C(=O)CNc3ncc(-c4ccc(C(C)(C)O)nc4)nc32)CC1	%	26
CN1CCN(C2=Nc3cc(Cl)ccc3Nc3ccccc32)CC1	%	100
CC(C)C[C@H](NP(=O)(O)O[C@@H]1O[C@@H](C)[C@H](O)[C@@H](O)[C@H]1O)C(=O)N[C@@H](Cc1c[nH]c2ccccc12)C(=O)O [Phosphoramidon Disodium Salt]	%	98.6
CCCCCCCCC/C(=C\C1=C(C)C(=O)C(OC)=C(OC)C1=O)C(=O)O	%	108
Cc1ccc(C=O)o1	%	103
COc1ccccc1N1CCN(CC(O)COc2cccc3ccccc23)CC1 (stereo unspecified) [Naftopidil Dihydrochloride]	%	71.4
O=[N+]([O-])c1ccc2c(c1)S(=O)(=O)C=C2	%	0.06
CC(C)(C)c1cc(O)ccc1O	%	37.9
O=C(O)c1cc(O)c2c(c1)[C@@H]([C@H]1c3cc(C(=O)O)cc(O)c3C(=O)c3c(O[C@@H]4O[C@H](CO)[C@@H](O)[C@H](O)[C@H]4O)cccc31)c1cccc(O[C@@H]3O[C@H](CO)[C@@H](O)[C@H](O)[C@H]3O)c1C2=O [Sennoside B]	%	77.4
CC[C@H](C)C(=O)O[C@H]1C[C@H](O)C=C2C=C[C@H](C)[C@H](CC[C@@H](O)C[C@@H](O)CC(=O)O)[C@H]21 [Pravastatin sodium]	%	91
CC(=O)Oc1c(C)c(C)c2c(c1C)CCC(C)(CCC[C@H](C)CCC[C@H](C)CCCC(C)C)O2 (stereo partly specified) [Vitamin E Acetate]	%	105

* * *

Readings of cell viability for the listed compounds
# Test system: MARIMO
# test_name: cell viability relative to vehicle control; higher = less cytotoxic
# experimental_parameters: 10 µM; SRSF2 genotype: SRSF2 wt/wt
Where a name gives a salt, the structure may show the parent alone.

compound	experimental_target	cell viability
CCn1cc(-c2cccc(C(F)(F)F)c2)c2sc(C(=N)NC3CCS(=O)(=O)CC3)cc2c1=O	MARIMO	45.3%
CC(=O)OC(C)C(C)C(=O)OCC12C3CC(C)(C)[C@H](O[C@@H]1C[C@]1(C)C3=CCC3C4(C)CCC(O[C@@H]5O[C@H](C(=O)O)[C@@H](O[C@H]6O[C@H](CO)[C@@H](O)[C@H](O)[C@H]6O)[C@H](O)[C@H]5O[C@@H]5OC[C@@H](O)[C@H](O)[C@H]5O)[C@](C)(CO)C4CCC31C)C2O (stereo not given in full) [Sodium Aescinate]	MARIMO	96.8%
OC[C@@H](O)[C@@H](O[C@H]1O[C@H](CO)[C@@H](O)[C@H](O)[C@H]1O)[C@H](O)[C@@H](O)CO	MARIMO	105%
CC(OC(=O)OC1CCCCC1)OC(=O)C1=C(CSc2nnnn2CCN(C)C)CS[C@@H]2[C@H](NC(=O)Cc3csc(N)n3)C(=O)N12 (stereo not given in full) [Cefotiam Hexetil Hydrochloride]	MARIMO	94.9%
Nc1ncn([C@@H]2O[C@H](CO)[C@@H](O)[C@H]2O)c(=O)n1	MARIMO	52.8%
C[C@@H]1COC(Nc2ccc3ncnc(Nc4ccc(OCc5nccs5)c(Cl)c4)c3c2)=N1	MARIMO	109%
CCOC(=O)C=Cc1ccc(OC)cc1 [Ethyl 4-Methoxycinnamate]	MARIMO	88.4%
CN1CCC(CNc2ccc3ncc(-c4cccc(OC(F)(F)F)c4)n3n2)CC1 [SGI-1776 free base]	MARIMO	2.75%
CN1CCCN(C(=O)c2cccc(-c3ccc(/C=C4/C(=O)Nc5ccc(Cl)cc54)o3)c2)CC1	MARIMO	0.37%
CCN1CCN(C(=O)N[C@@H](C(=O)N[C@@H]2C(=O)N3C(C(=O)O)=C(CSc4nnnn4C)CS[C@H]23)c2ccc(O)cc2)C(=O)C1=O	MARIMO	101%

* * *

# Tested on: OCI-AML2
# test_name: cell viability relative to vehicle control; higher = less cytotoxic
# experimental_parameters: 10 µM; SRSF2 genotype: P95H/wt
Counter-ions that a name gives are not always drawn.
Readings of cell viability for the listed compounds
measurement_label: cell viability

compound	result
CNC[C@H](O)[C@@H](O)[C@H](O)[C@H](O)CO.CNC[C@H](O)[C@@H](O)[C@H](O)[C@H](O)CO.O=C([O-])CN(CCN(CC(=O)[O-])CC(=O)O)CCN(CC(=O)[O-])CC(=O)O.[Gd+3] [Gadopentetate Dimeglumine]	98.2%
COc1ccc(CCc2nc3cc(-c4c(C)noc4C)ccc3n2C[C@H](C)N2CCOCC2)cc1Cl	45.7%
NC(=O)N1CCC(CC(=O)N2CCC([C@H]3c4ncc(Br)cc4CCc4cc(Cl)cc(Br)c43)CC2)CC1	38%
C[C@@H](CN1CC(=O)NC(=O)C1)N1CC(=O)NC(=O)C1 [Dexrazoxane Hydrochloride]	75.2%
O=c1c(O)c(-c2ccc(O)c(O)c2)oc2cc(O)cc(O)c12 [Quercetin (Sophoretin)]	93.8%

Source listed as the supplement of paper PMC10981050.
